Exercise: for every item that follows, state its recorded DC50.
target: HiBit-KRAS^G12C (Homo sapiens, UniProt P01116, G12C); assay: HiBit degradation assay in SW1573 HiBit-KRas^G12C cells; assay type: cell-based; parameters: expressed in transfected cells; host or cells: SW1573 (clone E6), modified pcDNA3.1 vector, TK promoter; details: SW1573 HiBit-KRas^G12C, 0.1% DMSO, 24 hours; read-out: KRas^G12C-HIBit (SW1573; 0.1% DMSO) DC50*
Sequence (P01116 1-186 isoform P01116-2 G12C limits assumed): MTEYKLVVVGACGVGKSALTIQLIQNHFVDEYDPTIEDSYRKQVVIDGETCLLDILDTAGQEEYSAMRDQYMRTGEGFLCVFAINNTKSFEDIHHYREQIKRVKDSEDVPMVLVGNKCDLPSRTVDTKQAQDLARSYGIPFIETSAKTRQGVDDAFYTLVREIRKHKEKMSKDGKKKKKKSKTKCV

Example molecules with recorded DC50:
[[record]]
molecule = "C=CC(=O)N1CCN(c2nc(OCCN3CCC(OCCOc4cc([C@@H](C(=O)N5C[C@@H](O)C[C@H]5C(=O)N[C@@H](C)c5ccc(-c6scnc6C)cc5)C(C)C)on4)CC3)nc3c(F)c(-c4cc(O)cc5ccccc45)c(Cl)cc23)C[C@@H]1CC#N"
measurement_target = "HiBit-KRAS^G12C (Homo sapiens, UniProt P01116, G12C)"
metric_name = "DC50"
test_value = "> 1000 nM"

[[record]]
molecule = "C=CC(=O)N1CCN(c2nc(O[C@H](C)CN3CCC(CCC(=O)N[C@H](C(=O)N4C[C@H](O)C[C@H]4C(=O)N[C@@H](C)c4ccc(-c5scnc5C)cc4)C(C)(C)C)CC3)nc3c(F)c(-c4cc(O)cc5ccccc45)c(Cl)cc23)CC1"
measurement_target = "HiBit-KRAS^G12C (Homo sapiens, UniProt P01116, G12C)"
metric_name = "DC50"
test_value = "100 to 1000 nM"

[[record]]
molecule = "C=CC(=O)N1CCN(c2nc(O[C@H](C)CN3CCC(OCCOCC(=O)N[C@H](C(=O)N4C[C@H](O)C[C@H]4C(=O)N[C@@H](C)c4ccc(-c5scnc5C)cc4)C(C)(C)C)CC3)nc3c(F)c(-c4cc(O)cc5ccccc45)c(Cl)cc23)CC1 (atropisomer, axis not shown) [Compound 85]"
measurement_target = "HiBit-KRAS^G12C (Homo sapiens, UniProt P01116, G12C)"
metric_name = "DC50"
test_value = "> 1000 nM"


Provide DC50 values for the following items, in order.
1. C=CC(=O)N1CCN(c2nc(O[C@H](C)CN3CCN(CCCN4CCN(CC(=O)N[C@H](C(=O)N5C[C@H](O)C[C@H]5C(=O)N[C@@H](C)c5ccc(-c6scnc6C)cc5)C(C)(C)C)CC4)CC3)nc3c(F)c(-c4cc(O)cc5ccccc45)c(Cl)cc23)CC1
2. C=CC(=O)N1CCN(c2nc(OC[C@@H]3C[C@@H](OCCOCCOCCOCCOCCOCCOCCOCCOCCOCCOCC(=O)N[C@H](C(=O)N4C[C@H](O)C[C@H]4C(=O)N[C@@H](C)c4ccc(-c5scnc5C)cc4)C(C)(C)C)CN3C)nc3c2CCN(c2cccc4ccccc24)C3)C[C@@H]1CC#N
3. C=CC(=O)N1CCN(c2nc(O[C@H](C)CN3CCC(OCCOCC(=O)N[C@H](C(=O)N4C[C@H](O)C[C@H]4C(=O)N[C@@H](C)c4ccc(-c5scnc5C)cc4)C(C)(C)C)CC3)nc3c(F)c(-c4c(O)cccc4F)c(Cl)cc23)C[C@H]1C

Result string:
["100 to 1000 nM", "> 1000 nM", "> 1000 nM"]
